- experimental_details: Pharmacokinetic study in rats (IV and PO, plasma)
- Assay type: in vivo
- condition_description: Sprague-Dawley, rat, SD rats, IV, 2 mg/kg
Catalogue of AUC values
measured_metric: AUC (ng·h/mL)

- compound: "Cn1c(N2CCOCC2)nc2cc(NN=C(C#N)C#N)ccc21 [Compound 6]"
  measured_metric: "AUC"
  units_symbol: "ng·h/mL"
  assay_value: 1700
- compound: "CC1COCCN1c1nc2ccc(NN=C(C#N)C#N)cc2o1 (centres unmarked) [Compound 16]"
  measured_metric: "AUC"
  units_symbol: "ng·h/mL"
  assay_value: 4090

###

Catalogue of CYP2D6 (% activity) values
- system_name: CYP2D6 (Homo sapiens, UniProt P10635)
- Construct: human liver microsomes (0.25 mg/mL); from tissue; host or cells: human liver microsomes
- Sequence (P10635 whole entry): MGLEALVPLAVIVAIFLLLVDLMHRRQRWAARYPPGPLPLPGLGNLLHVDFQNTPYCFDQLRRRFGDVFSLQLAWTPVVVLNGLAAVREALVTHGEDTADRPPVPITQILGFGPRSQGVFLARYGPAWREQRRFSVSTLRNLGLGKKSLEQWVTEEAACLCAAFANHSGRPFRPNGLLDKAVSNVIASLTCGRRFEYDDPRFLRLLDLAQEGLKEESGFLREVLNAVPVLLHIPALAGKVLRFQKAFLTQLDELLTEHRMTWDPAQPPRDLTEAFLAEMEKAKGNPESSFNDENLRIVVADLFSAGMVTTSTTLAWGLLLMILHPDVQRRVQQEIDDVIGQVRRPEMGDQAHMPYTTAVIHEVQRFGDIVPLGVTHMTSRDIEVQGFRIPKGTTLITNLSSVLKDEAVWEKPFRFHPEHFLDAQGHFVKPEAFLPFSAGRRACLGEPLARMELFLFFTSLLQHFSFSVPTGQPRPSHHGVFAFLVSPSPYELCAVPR
- experimental_details: CYP isoenzyme activity inhibition in human liver microsomes, CYP2D6
- Type: in vitro ADME
- condition_description: 10 µM compound; human liver microsomes 0.25 mg/mL; relative to control without compound
measured_metric: CYP2D6 (% activity)

- compound: "N#CC(C#N)=NNc1ccc2nc(N3CCOCC3)oc2c1 [Compound 4]"
  system_name: "CYP2D6 (Homo sapiens, UniProt P10635)"
  units_symbol: "% activity"
  comparison_operator: ">"
  assay_value: 100
- compound: "N#CC(C#N)=NNc1ccc2sc(N3CCOCC3)nc2c1 [Compound 1]"
  system_name: "CYP2D6 (Homo sapiens, UniProt P10635)"
  units_symbol: "% activity"
  comparison_operator: ">"
  assay_value: 100
- compound: "N#CC(C#N)=NNc1ccc2nc(NC(=O)N3CC4CCC(C3)O4)sc2c1 [Compound 40]"
  system_name: "CYP2D6 (Homo sapiens, UniProt P10635)"
  units_symbol: "% activity"
  comparison_operator: "="
  assay_value: 88.6
- compound: "N#CC(C#N)=NNc1ccc2nc(NC(=O)N3CCOCC3)sc2c1 [Compound 38]"
  system_name: "CYP2D6 (Homo sapiens, UniProt P10635)"
  units_symbol: "% activity"
  comparison_operator: "="
  assay_value: 95.7
- compound: "Cn1c(N2CCOCC2)nc2ccc(NN=C(C#N)C#N)cc21 [Compound 5]"
  system_name: "CYP2D6 (Homo sapiens, UniProt P10635)"
  units_symbol: "% activity"
  comparison_operator: ">"
  assay_value: 100
- compound: "N#CC(C#N)=NNc1ccc2nc(N3CC4CCC(C3)O4)oc2c1 [Compound 26]"
  system_name: "CYP2D6 (Homo sapiens, UniProt P10635)"
  units_symbol: "% activity"
  comparison_operator: "="
  assay_value: 82.1
- compound: "N#CC(C#N)=NNc1ccc2oc(N3CCOCC3)nc2c1 [Compound 3]"
  system_name: "CYP2D6 (Homo sapiens, UniProt P10635)"
  units_symbol: "% activity"
  comparison_operator: ">"
  assay_value: 100
- compound: "CC1CN(c2nc3ccc(NN=C(C#N)C#N)cc3s2)CC(C)O1 (stereo not drawn) [Compound 10]"
  system_name: "CYP2D6 (Homo sapiens, UniProt P10635)"
  units_symbol: "% activity"
  comparison_operator: "="
  assay_value: 93.8
- compound: "N#CC(C#N)=NNc1ccc2nc(N3CC4CCC(C3)O4)sc2c1 [Compound 23]"
  system_name: "CYP2D6 (Homo sapiens, UniProt P10635)"
  units_symbol: "% activity"
  comparison_operator: "="
  assay_value: 71.5

// data source = patent EP4737445A1
